- measured on: UniProtKB P08908
- Sequence (P08908 whole entry): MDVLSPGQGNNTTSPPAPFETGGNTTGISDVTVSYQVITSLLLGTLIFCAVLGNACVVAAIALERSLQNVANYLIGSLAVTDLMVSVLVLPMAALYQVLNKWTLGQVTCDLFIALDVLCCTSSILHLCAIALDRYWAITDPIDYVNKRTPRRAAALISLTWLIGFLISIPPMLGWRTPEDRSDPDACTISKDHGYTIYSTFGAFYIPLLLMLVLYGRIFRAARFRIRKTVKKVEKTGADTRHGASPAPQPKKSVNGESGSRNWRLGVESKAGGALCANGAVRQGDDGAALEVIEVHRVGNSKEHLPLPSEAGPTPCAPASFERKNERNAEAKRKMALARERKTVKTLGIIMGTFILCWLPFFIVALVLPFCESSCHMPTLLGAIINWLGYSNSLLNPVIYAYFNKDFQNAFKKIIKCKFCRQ
pKi: −log10 of the molar value.
Listing: pKi of selected compounds

Illustrative cases are given below, each with its answer.
O[C@@]1(c2ccc(Cl)cc2)C[C@H]2CC[C@@H](C1)N2Cc1csc2ccccc12    5.76
O[C@]1(c2ccc(Cl)cc2)C[C@H]2CC[C@@H](C1)N2Cc1c[nH]c2ccccc12    < 5.00

Attention now shifts to the item below.
Query: So what does the record say about pKi for O[C@@]1(c2ccc(Cl)c(Cl)c2)C[C@H]2CC[C@@H](C1)N2Cc1c[nH]c2ccccc12 ?
Reply: < 5.00

Measured values drawn from ChEMBL document CHEMBL1140093 for this set.
